meta.source: the RNAGym collection of RNA variant scans (doi:10.1101/gad.245936.114)

B1: tRNA (parent)
chain: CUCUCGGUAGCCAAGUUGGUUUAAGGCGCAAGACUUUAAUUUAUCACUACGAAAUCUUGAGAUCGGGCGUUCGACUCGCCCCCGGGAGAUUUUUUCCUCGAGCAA

Variants of: B1
Test: nonsense suppression (GFP-seq) (ratio to wild type); higher = more function; SUP4oc tRNA, yeast GFP reporter sort-seq
Fewer inactive variants are shown than the library holds.
assay metric: nonsense suppression
// no unit string in output, number only

[[record]]
change = "U20C U21C"
endpoint_result = 1.15

[[record]]
change = "A30U G85A"
endpoint_result = 0.52

[[record]]
change = "A9U A74G"
endpoint_result = 0.0977


The recorded nonsense suppression for entry G28A A54C C68U equals 0.18

G28C A89G yielded nonsense suppression of 0.0403

The reported nonsense suppression of the variant U4G C68G was 0.0622

What the record says about C11U A24U : nonsense suppression is 0.031

The reported value for U4G G78U in terms of nonsense suppression is 0.0997

Form field nonsense suppression, entry A24G : 0.188

For reference, reported nonsense suppression for A13U C83U stands at 0.157
